Ref: the supplement of paper PMC9732359

ASSAY SUMMARY: protein stability index of a GFP-peptide fusion (yeast GPS) (PSI 1-4); higher = more stable; sorted into four equal gates, so the index is relative within each strain
MEASUREMENT CONDITIONS: ubr1∆
Field: protein stability index. Provide a value for each of the sequences that follow.
# answer = number (no unit)

Query: Recorded protein stability index of HGTSTSAEDEENIIQRL [CDC53] , please.
Reply: 3.06

Query: Repeat with YRNNEPAGFTHKLSNWL [YDL088C/ASM4]
Reply: 2.82

Query: Repeat with VIVTDPRSDAQAIKEAS [RPS0A]
Reply: 2.91

Query: Repeat with NVFTPEISSQIEILVKD [RRI2]
Reply: 1.3

Query: Repeat with TSEMKVLSIPPANHLQS [YGL100W/SEH1]
Reply: 2.56

###

ASSAY SUMMARY: protein stability index of a GFP-peptide fusion (yeast GPS) (PSI 1-4); higher = more stable; sorted into four equal gates, so the index is relative within each strain
MEASUREMENT CONDITIONS: ubr1∆
Field: protein stability index. Provide a value for each of the sequences that follow.
# answer = number (no unit)

Query: Recorded protein stability index of DSLIQLANRSKENFILD [YJL039C/NUP192] , please.
Reply: 3.13

Query: Repeat with KTKWDRKPMGKRINFEK [POP1]
Reply: 3

Query: Repeat with GNVFSPIDNNIIFASTK [SNU114]
Reply: 2.95

Query: Repeat with KERNSLKKLKAMNDACY [BRR2]
Reply: 3.05

Query: Repeat with WKATYSNEFKCMSVITA [YGL100W/SEH1]
Reply: 2.07

Query: Repeat with KACKTADKLVNVTQNEQ [SRP68]
Reply: 3.07

###

ASSAY SUMMARY: protein stability index of a GFP-peptide fusion (yeast GPS) (PSI 1-4); higher = more stable; sorted into four equal gates, so the index is relative within each strain
MEASUREMENT CONDITIONS: pdr5∆
So basically: protein stability index at 2 or higher? That is y. Lower than 2? That is n.

Query: Kindly determine if protein stability index recorded for SQTPSFNTNSSFTPSTV [YOR098C/NUP1] is above or exactly 2.
Reply: y

Query: Repeat with KYKLISRIVEIFALCIY [YML103C/NUP188]
Reply: y

Query: Repeat with TTFEYIIKERALLSKVK [SNF2]
Reply: n

Query: Repeat with MIDLGFEDQVTNILTKV [PRP28]
Reply: y

Query: Repeat with CGAWEPAITIEKLKQFS [SIR3]
Reply: n

Query: Repeat with QSISGTLELSAQFRVPR [SWP82]
Reply: y

Query: Repeat with GRLLRAMFEICLKRGWG [BRR2]
Reply: n

###

ASSAY SUMMARY: protein stability index of a GFP-peptide fusion (yeast GPS) (PSI 1-4); higher = more stable; sorted into four equal gates, so the index is relative within each strain
MEASUREMENT CONDITIONS: pdr5∆
So basically: protein stability index at 2 or higher? That is Criterion met. Lower than 2? That is Criterion not met.

Query: Kindly determine if protein stability index recorded for SFTLLNQLSQTNKLLFK [NUT1] is above or exactly 2.
Reply: Criterion met

Query: Repeat with ILNDIETLEHNPVALEQ [BRR2]
Reply: Criterion met

Query: Repeat with SNHNNLNLNNSELQPQN [SNF2]
Reply: Criterion met

Query: Repeat with TGKTLLAKAVAATIGAN [RPT4]
Reply: Criterion not met

Query: Repeat with DTKNSKSESPSEVLVDT [ISW2]
Reply: Criterion met

Query: Repeat with NGMFCQVPSSLIVRAKN [RRP4]
Reply: Criterion met

Query: Repeat with DYAQLDHLVSSIPMGGQ [ARP9]
Reply: Criterion met

Query: Repeat with KQLVEKAELRLAIADSP [ECM29]
Reply: Criterion met

Query: Repeat with LYAITFRKGLGNPLLYD [QCR2]
Reply: Criterion not met

###

ASSAY SUMMARY: protein stability index of a GFP-peptide fusion (yeast GPS) (PSI 1-4); higher = more stable; sorted into four equal gates, so the index is relative within each strain
MEASUREMENT CONDITIONS: pdr5∆
So basically: protein stability index at 3 or higher? That is yes. Lower than 3? That is no.

Query: Kindly determine if protein stability index recorded for CILRFLQLPIEDKFLYG [SWI3] is above or exactly 3.
Reply: no

Query: Repeat with PKAVVDHINGSGKRKPT [GAL11]
Reply: no

Query: Repeat with WLKEYEDETLRRIKEAE [YIL149C/MLP2]
Reply: yes

Query: Repeat with VLRLATNKGPLAQIWLA [MCD1]
Reply: no

Query: Repeat with LSATQFTQPALTLMEKA [FAS1]
Reply: no

Query: Repeat with GYDRHITIFSPEGRLYQ [SCL1]
Reply: no

###

ASSAY SUMMARY: protein stability index of a GFP-peptide fusion (yeast GPS) (PSI 1-4); higher = more stable; sorted into four equal gates, so the index is relative within each strain
MEASUREMENT CONDITIONS: pdr5∆
Field: protein stability index. Provide a value for each of the sequences that follow.

Query: Recorded protein stability index of RDGVLTVTLNKNREVVQ [RRP45] , please.
Reply: 2.93

Query: Repeat with KEKEAAESPEEADVEMS [PUP2]
Reply: 3.51

Query: Repeat with FNRALDQSISKLQSWDK [NNF1]
Reply: 1.49

Query: Repeat with WKTAEEVSALVRSLPKE [PRP8]
Reply: 1.36

Query: Repeat with CELLKLTNEDPPGLMYL [SSN2]
Reply: 3.06

Query: Repeat with DSYLDADKELSFEINVK [BRR2]
Reply: 3.03

Query: Repeat with SSGFNEDIVGALRRRVG [REC8]
Reply: 1.16

Query: Repeat with KRHSYAQSSHIRAIRKV [RPS1A]
Reply: 2.34

Query: Repeat with RADVEDESNDIDMIADE [RPC37]
Reply: 2.72

Query: Repeat with AGYTDNVIRVWQVMTAN [ASC1]
Reply: 1.35

Query: Repeat with KKVVIVKPHDEGSKSHP [RPL27A]
Reply: 2.86

Query: Repeat with FMDVITLDATNENFRLV [RPS4A]
Reply: 3.44

Query: Repeat with YNHNDGGDGRDYKGAKL [RRI1]
Reply: 3.2

Query: Repeat with IPTKESLTRDFEQCCKE [YIL149C/MLP2]
Reply: 2.96

Query: Repeat with MATIASEYSSEASNTPI [PRE7]
Reply: 2.76

Query: Repeat with GSQKTFEIDDEHRIRVF [RPS6A]
Reply: 2.76

Query: Repeat with NHPELQGITRNVVNYLS [RPC17]
Reply: 1.83

Query: Repeat with SRRPEPKKFGGKGARSR [RPS16A]
Reply: 3.25

Query: Repeat with PNSGTATTGGFGANQAT [YGR119C/NUP57]
Reply: 2.33

Query: Repeat with SNDLCSQIFDQLKDMQT [SRB8]
Reply: 2.67

Query: Repeat with NMEIRNLRLKILTIIEE [GRR1]
Reply: 1.53

Query: Repeat with SFTYELKQHNQNNLPPN [BRR2]
Reply: 3.21

Query: Repeat with EKRATSPLLESDSIEKI [PUP2]
Reply: 3.07

Query: Repeat with KSIIGKLTAERANLRKY [POP1]
Reply: 2.92

Query: Repeat with STPYLEILVEESGLRPV [PCI8]
Reply: 1.55

Query: Repeat with MEKDKLKNLLRSNFRVN [SNU114]
Reply: 2.45

Query: Repeat with NEIIRSLSDEVMRNEIR [SIR4]
Reply: 2.1

Query: Repeat with EEKQKSYKFPRGTTAVL [PUP1]
Reply: 3.11

Query: Repeat with PVFHKKAKTTKKVVLRL [RPL42A]
Reply: 1.92

Query: Repeat with TASDQLFGMCESLYEPN [PUP3]
Reply: 2.12

Query: Repeat with VVNQPTGKIVDVVGTLS [FAS1]
Reply: 3.49

Query: Repeat with NLPPHYALFLKALRRKI [SSN2]
Reply: 1.79

Query: Repeat with TLDKKDSIPLRITNSFY [RPN9]
Reply: 2.81

Query: Repeat with GAGSIFTSHTRLRQGAA [RPL2A]
Reply: 3.2

Query: Repeat with LDTFIKIDGNPDELIKA [PRE5]
Reply: 3.19

Query: Repeat with GMKVKADRDESSPYAAM [RPS14B]
Reply: 1.09

Query: Repeat with AIALAVRLGEEDMIRSV [RPN1]
Reply: 3.4

Query: Repeat with TQARVITGNKIMRILKS [RPS13]
Reply: 1.24

Query: Repeat with FQNSKSASLFKQRKNPR [RPL24A]
Reply: 2.44

Query: Repeat with SSTGVPESIDTILSSKL [SRB2]
Reply: 2.92

Query: Repeat with SNTRTMTYKNKLTVCFD [MED2]
Reply: 2.53

Query: Repeat with NAKRSHMMKRWGYQMVW [POP1]
Reply: 2.38

Query: Repeat with LGLCLVIQIVTGIFMAM [COB]
Reply: 1.2

Query: Repeat with SFATATCVTCHWNLPGE [SIR2]
Reply: 1.97

Query: Repeat with LGHPDNYIPGNPLVTPA [COB]
Reply: 3.07

Query: Repeat with RDCIDISIFSTPGSVSL [PRP8]
Reply: 2.88

Query: Repeat with DDIINNDEPSHKKIKVA [SIR2]
Reply: 2.84

Query: Repeat with PEHLRKIINTHSDMASK [PRP8]
Reply: 2.04

Query: Repeat with KLQFETDRLSTTQRRYE [SMC1]
Reply: 3.3

Query: Repeat with TNPSSIFGGAGGVPTTS [YOR098C/NUP1]
Reply: 2.36

Query: Repeat with MAAALPNPTPSMINSVS [PGD1]
Reply: 2.3

Query: Repeat with ADTIDHDELIDSIPRDV [YGL172W/NUP49]
Reply: 3.24
